biological target: Human Cav2.2 channels (Homo sapiens, UniProt Q00975); construct: expressed in transfected cells; assay: Block of Cav2.2 (N-type) channels expressed in HEK293 cells; type: cell-based; settings: HEK293; read-out: Cav 2.2 % Inh @ 10 μM
Sequence (Q00975 whole entry): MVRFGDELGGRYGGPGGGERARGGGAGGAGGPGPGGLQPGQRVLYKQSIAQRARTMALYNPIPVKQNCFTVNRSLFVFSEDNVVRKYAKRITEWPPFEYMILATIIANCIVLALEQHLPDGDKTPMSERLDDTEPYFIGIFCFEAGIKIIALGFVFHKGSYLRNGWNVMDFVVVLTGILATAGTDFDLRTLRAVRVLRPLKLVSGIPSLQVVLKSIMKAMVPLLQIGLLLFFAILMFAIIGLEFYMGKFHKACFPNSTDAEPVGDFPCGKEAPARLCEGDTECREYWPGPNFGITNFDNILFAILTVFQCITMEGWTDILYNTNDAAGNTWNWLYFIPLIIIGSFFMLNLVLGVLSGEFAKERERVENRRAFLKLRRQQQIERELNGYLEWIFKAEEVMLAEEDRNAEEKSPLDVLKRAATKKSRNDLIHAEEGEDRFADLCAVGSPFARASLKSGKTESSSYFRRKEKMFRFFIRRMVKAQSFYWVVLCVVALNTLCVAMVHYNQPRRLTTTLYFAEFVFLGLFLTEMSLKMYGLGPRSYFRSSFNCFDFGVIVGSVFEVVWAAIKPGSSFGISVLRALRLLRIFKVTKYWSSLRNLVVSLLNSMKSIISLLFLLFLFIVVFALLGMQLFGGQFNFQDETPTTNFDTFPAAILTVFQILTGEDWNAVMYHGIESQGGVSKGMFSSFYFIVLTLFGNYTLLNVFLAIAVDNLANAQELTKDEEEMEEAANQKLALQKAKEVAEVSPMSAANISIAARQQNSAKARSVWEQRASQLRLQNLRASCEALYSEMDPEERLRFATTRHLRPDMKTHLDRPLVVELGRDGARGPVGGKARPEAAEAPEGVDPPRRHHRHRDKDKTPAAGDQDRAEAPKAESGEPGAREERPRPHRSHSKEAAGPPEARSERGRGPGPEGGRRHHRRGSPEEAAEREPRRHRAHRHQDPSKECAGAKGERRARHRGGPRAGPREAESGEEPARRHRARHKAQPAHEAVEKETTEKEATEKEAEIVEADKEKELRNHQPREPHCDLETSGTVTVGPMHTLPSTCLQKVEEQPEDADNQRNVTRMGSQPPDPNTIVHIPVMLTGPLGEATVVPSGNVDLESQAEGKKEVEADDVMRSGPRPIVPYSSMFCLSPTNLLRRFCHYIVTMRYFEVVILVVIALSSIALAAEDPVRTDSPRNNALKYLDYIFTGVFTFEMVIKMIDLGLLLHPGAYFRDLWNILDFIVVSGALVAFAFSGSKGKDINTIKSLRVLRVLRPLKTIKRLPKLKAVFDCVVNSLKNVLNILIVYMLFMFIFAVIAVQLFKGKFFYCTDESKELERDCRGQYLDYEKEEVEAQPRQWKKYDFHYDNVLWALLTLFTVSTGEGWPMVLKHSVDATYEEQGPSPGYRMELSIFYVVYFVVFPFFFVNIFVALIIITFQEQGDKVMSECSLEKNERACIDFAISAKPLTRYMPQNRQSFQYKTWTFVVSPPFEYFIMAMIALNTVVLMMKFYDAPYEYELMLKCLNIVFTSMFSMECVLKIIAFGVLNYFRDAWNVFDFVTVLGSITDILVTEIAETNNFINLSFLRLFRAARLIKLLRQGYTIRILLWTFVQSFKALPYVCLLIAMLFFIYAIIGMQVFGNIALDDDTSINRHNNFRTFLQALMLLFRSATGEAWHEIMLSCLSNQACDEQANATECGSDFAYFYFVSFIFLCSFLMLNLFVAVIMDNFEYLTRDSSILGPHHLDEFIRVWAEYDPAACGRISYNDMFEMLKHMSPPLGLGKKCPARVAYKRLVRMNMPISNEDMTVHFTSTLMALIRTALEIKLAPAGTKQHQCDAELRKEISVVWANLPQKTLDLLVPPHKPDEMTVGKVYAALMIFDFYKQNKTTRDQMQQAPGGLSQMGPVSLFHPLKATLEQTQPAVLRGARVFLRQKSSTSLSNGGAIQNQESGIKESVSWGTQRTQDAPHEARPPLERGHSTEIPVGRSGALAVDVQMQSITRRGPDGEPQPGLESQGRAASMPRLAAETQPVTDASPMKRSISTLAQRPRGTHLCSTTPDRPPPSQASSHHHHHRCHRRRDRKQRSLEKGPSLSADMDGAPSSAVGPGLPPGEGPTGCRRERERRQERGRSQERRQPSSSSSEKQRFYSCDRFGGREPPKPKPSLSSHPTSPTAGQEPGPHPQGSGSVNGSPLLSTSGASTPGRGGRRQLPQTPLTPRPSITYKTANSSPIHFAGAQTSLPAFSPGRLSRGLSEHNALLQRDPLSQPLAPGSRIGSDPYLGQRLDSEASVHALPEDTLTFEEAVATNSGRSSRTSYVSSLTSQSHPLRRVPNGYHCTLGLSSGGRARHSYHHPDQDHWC
Sequence (P54289 25-956 partner limits assumed): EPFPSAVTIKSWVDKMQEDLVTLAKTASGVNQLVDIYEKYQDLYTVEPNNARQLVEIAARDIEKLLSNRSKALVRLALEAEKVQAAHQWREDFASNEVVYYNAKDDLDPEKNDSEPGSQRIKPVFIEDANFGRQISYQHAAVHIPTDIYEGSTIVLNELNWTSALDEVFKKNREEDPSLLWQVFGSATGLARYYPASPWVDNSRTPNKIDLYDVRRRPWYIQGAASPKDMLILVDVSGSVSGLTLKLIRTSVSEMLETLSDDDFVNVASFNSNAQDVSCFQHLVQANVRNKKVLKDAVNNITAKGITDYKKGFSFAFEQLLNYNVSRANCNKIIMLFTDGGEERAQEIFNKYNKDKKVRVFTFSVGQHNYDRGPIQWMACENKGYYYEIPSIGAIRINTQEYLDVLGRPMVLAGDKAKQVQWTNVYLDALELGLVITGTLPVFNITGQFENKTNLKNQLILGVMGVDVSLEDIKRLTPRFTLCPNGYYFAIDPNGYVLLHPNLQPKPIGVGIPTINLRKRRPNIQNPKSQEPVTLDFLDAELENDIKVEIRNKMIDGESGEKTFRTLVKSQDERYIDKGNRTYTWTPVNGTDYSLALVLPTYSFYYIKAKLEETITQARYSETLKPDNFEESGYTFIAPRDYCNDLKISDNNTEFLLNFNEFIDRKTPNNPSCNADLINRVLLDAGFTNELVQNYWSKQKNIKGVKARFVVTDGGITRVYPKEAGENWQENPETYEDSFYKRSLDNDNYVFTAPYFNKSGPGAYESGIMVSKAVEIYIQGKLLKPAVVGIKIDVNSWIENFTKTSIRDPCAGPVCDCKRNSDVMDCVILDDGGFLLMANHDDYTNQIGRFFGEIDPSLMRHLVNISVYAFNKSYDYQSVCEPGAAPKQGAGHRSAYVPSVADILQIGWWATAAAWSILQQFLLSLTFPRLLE
Sequence (P54289 957-1103 partner limits assumed): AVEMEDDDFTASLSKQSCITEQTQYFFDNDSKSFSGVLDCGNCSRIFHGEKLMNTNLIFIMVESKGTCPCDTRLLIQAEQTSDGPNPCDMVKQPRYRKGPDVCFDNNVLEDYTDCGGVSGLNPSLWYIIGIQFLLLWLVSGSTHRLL
Sequence (P54284 whole entry partner): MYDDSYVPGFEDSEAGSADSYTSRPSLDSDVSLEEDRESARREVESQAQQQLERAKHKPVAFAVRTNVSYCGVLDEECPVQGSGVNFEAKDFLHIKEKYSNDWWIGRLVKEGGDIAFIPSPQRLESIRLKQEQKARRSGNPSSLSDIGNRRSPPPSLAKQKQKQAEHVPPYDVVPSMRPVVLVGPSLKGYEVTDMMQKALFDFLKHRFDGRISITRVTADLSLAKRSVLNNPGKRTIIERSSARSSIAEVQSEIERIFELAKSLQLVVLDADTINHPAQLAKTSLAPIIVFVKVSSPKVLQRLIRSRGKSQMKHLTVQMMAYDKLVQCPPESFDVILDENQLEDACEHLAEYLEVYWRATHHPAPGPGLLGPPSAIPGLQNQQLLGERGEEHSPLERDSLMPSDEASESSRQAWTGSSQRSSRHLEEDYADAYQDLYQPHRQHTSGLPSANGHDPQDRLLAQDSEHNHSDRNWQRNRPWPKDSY
recorded-metric: inhibition at 10 µM (%)

// below: answered compounds
smiles-structure | measured-on | inhibition at 10 µM (%)
CC(C)(C)c1cc(N2CCN(C(=O)c3ccncc3)CC2)cc(C(C)(C)C)c1 | Human Cav2.2 channels (Homo sapiens, UniProt Q00975) | 90
CCn1nc(C)cc1C(=O)N1CCN(c2cc(C(C)(C)C)cc(C(C)(C)C)c2)CC1 | Human Cav2.2 channels (Homo sapiens, UniProt Q00975) | 97

I: Cc1cc(C(=O)N2CCN(c3cc(C(C)(C)C)cc(C(C)(C)C)c3)CC2)c(C(F)(F)F)o1
II: CC(C)(C)c1cc(N2CCN(C(=O)c3cc(C4CC4)n[nH]3)CC2)cc(C(C)(C)C)c1
Identify the item whose inhibition at 10 µM is the smaller number: I or II Label of pick, please.
II
(II: 54%, I: 91%)

Reference for the values: patent US20090270413A1
